pKi: −log10 of the molar value.
Multiple publications report pKi for Coagulation factor X (Homo sapiens, UniProt P00742); what follows is a combined list.
quantity: pKi

• COc1cc([C@@H](Nc2ccc(C(=N)N)cc2)C(=O)N[C@H](C(=O)O)c2ccccc2)c(C(=O)Cc2ccccc2)cc1OCc1ccccc1 = 4.72
• COc1ccc(-n2nc(C)cc2C(=O)Nc2ccc(-c3ccccc3S(N)(=O)=O)cc2)cc1CN = 6.57
• COc1ccc(-n2nc(S(C)(=O)=O)c3c2C(=O)N(c2ccc(C(C)(C)CO)cc2)CC3)cc1 = 9.00
• CC(NC(=O)c1cc2ccccc2n1Cc1cccc(C(=N)N)c1)c1cc[n+](C)cc1 (configuration not stated) = 7.04
• O=C(Nc1ccc(Cl)cc1)c1cc(Cl)ccc1NC(=O)c1scc(Cn2cnnn2)c1Cl = 8.77

I: Cc1cccc(C(=O)Nc2ccc(Cl)cc2)c1NC(=O)c1sc2ccccc2c1Cl
II: N=C(N)c1cccc(-n2nc(C(F)(F)F)cc2C(=O)Nc2ccc(-n3cnc4ccccc43)cc2)c1
-- ask Could you kindly indicate whether I or II has the higher pKi value? Indicate which entry you chose by stating its label.
-- reply II
(II: 10.05, I: 7.24)

P: Cc1ccc(NC(=O)c2sc3ccccc3c2Cl)c(C(=O)Nc2ccccc2)c1
Q: N=C(N)c1ccc(CNC(=O)[C@@H]2Cc3ccc(cc3)NC(=O)CN3CCCN(CC3)CC(=O)NCc3ccc(cc3)C[C@@H](NS(=O)(=O)Cc3ccccc3)C(=O)N2)cc1
R: N=C(N)NCCC1CCN(C(=O)[C@H](Cc2cccc(C(=N)N)c2)NS(=O)(=O)c2ccc(Oc3ccccc3)nc2)CC1
-- ask List by increasing pKi. To answer, arrange all of the labels according to the requested order.
-- reply Q, R, P
